- Test system: BGC-823, liver cancer
- assay_summary: preliminary anti-tumor screening in vitro, SRB method
- Type: cell-based
- condition_context: Homo sapiens, 1 μM, read-out: inhibition rates (%) BGC-823
test_readout: inhibition at 1 µM (%)
# output: bare number, implied unit %

*Q* Quote inhibition at 1 µM reported for CC(C)C[C@H](NC(=O)[C@H](Cc1ccccc1)NC(=O)Nc1cnccn1)B(O)O please.
*A* 27.1

###

# inhibition at 2 µM listing for each entry below
- target_entity: 20S proteasome extracted from rat liver (T-L) (Rattus norvegicus, UniProt P40112+Q9JHW0)
- Construct: 20S proteasome extracted from rat liver; from tissue; host or cells: rat liver
- assay_summary: inhibition of 20S proteasome, T-L activity (fluorescent peptide)
- Format: biochemical
- condition_context: 2 μM; rat liver 20S proteasome, 37° C., 1 h; read-out: inhibition rates (%) T-L
Report the figure in % without appending any unit label.

Below are worked cases with known answers.
[
  {
    "compound": "CC(C)C[C@H](NC(=O)N[C@@H](Cc1ccccc1)C(=O)Nc1cccc(OCc2ccccc2)c1)B1OC2C[C@H]3C[C@H](C3(C)C)[C@@]2(C)O1 (some centres unmarked)",
    "uom": "%",
    "inhibition at 2 µM": -1.52
  },
  {
    "compound": "CC(C)C[C@H](NC(=O)[C@H](Cc1ccccc1)NC(=O)NCc1ccccc1)B(O)O",
    "uom": "%",
    "inhibition at 2 µM": 57.8
  },
  {
    "compound": "COc1ccc(CNC(=O)N[C@@H](Cc2ccccc2)C(=O)N[C@@H](CC(C)C)B(O)O)cc1",
    "uom": "%",
    "inhibition at 2 µM": 53.5
  },
  {
    "compound": "COc1ccc(OC)c(CNC(=O)N[C@@H](Cc2ccccc2)C(=O)N[C@@H](CC(C)C)B(O)O)c1",
    "uom": "%",
    "inhibition at 2 µM": 56.9
  },
  {
    "compound": "CC(C)C[C@H](NC(=O)N[C@@H](CC(C)C)C(=O)N[C@@H](CC(C)C)C(=O)Nc1cnccn1)B(O)O",
    "uom": "%",
    "inhibition at 2 µM": -5.63
  }
]

*Q* Identify the reported inhibition at 2 µM for the following entry. CC(C)C[C@H](NC(=O)N[C@H](Cc1ccccc1)C(=O)Nc1cnccn1)B(O)O
*A* -5.93

*Q* For the compound CC(C)C[C@H](NC(=O)N[C@@H](Cc1ccccc1)C(=O)Nc1cnccn1)B1OC2C[C@H]3C[C@H](C3(C)C)[C@@]2(C)O1 (some centres unmarked) , give its reported inhibition at 2 µM.
*A* -12.6

*Q* Please list inhibition at 2 µM recorded for the compound CC(C)C[C@H](NC(=O)N[C@@H](Cc1ccccc1)C(=O)Nc1cccc(OCc2ccccc2)c1)B(O)O
*A* 4.38

*Q* Return the recorded inhibition at 2 µM value; entry: CC(C)C[C@H](NC(=O)[C@H](Cc1ccccc1)NC(=O)Nc1cccc(OCc2ccccc2)c1)B(O)O
*A* 12.3

*Q* Report measured inhibition at 2 µM; entry is CC(C)C[C@H](NC(=O)CNC(=O)Nc1cc(Cl)ccc1Cl)B(O)O
*A* 28.3

*Q* Determine from records and report inhibition at 2 µM for COc1ccc(NC(=O)[C@H](Cc2ccccc2)NC(=O)N[C@@H](CC(C)C)B(O)O)cc1
*A* 9.32

*Q* Provide one value: measured inhibition at 2 µM of CC(C)C[C@H](NC(=O)N[C@@H](Cc1ccccc1)C(=O)N[C@@H](CC(C)C)C(=O)Nc1cnccn1)B1OC(C)(C)C(C)(C)O1
*A* 13.8

*Q* Please list inhibition at 2 µM recorded for the compound CC(C)C[C@H](NC(=O)N[C@@H](Cc1ccccc1)C(=O)NCC1CCCO1)B(O)O (some centres unmarked)
*A* 18.5

*Q* Using known records, supply inhibition at 2 µM for COc1ccc(NC(=O)[C@H](Cc2ccccc2)NC(=O)N[C@@H](CC(C)C)B2OC3C[C@H]4C[C@H](C4(C)C)[C@@]3(C)O2)cc1 (some centres unmarked)
*A* 9
